reported-endpoint: melting point

{"compound": "O=C(CCCCCc1ccccc1)c1nc2ncccc2o1", "value-reported": "61 to 63 °C"}
{"compound": "CCCCC(=O)c1nc2ncccc2o1", "value-reported": "35 to 37 °C"}
{"compound": "O=C(CCCCCCc1ccccc1)c1nc2ncccc2o1", "value-reported": "60 to 61 °C"}
{"compound": "CCCCCCCCCCCC(=O)c1nc2ncccc2o1", "value-reported": "68 to 69 °C"}
{"compound": "CCCCCCCCCCCCCCCC(=O)c1nc2ncccc2o1", "value-reported": "77 to 78 °C"}
{"compound": "CCCCCCCCCCCCCC(=O)c1nc2ncccc2o1", "value-reported": "73 to 74 °C"}
{"compound": "CCCCCC(=O)c1nc2ncccc2o1", "value-reported": "51 to 53 °C"}
{"compound": "CCCCCCCCCC(=O)c1nc2ncccc2o1", "value-reported": "60 to 62 °C"}
{"compound": "CC(=O)c1nc2ncccc2o1", "value-reported": "103 to 105 °C"}
{"compound": "O=C(CCCCCCCc1ccccc1)c1nc2ncccc2o1", "value-reported": "70 to 73 °C"}
{"compound": "CCCCCCCC(=O)c1nc2ncccc2o1", "value-reported": "60 to 61 °C"}
{"compound": "CCCCCCCCCCCCCCCCCCc1nc2ncccc2o1 [compound 61, 1-(Oxazolo[4,5-b]pyridin-2-yl)octadecane]", "value-reported": "84 to 85 °C"}
{"compound": "CCCCCCC(=O)c1nc2ncccc2o1", "value-reported": "52 to 53 °C"}
